Each recorded value in this set is attributed to patent US6939892B2.

For each entry below, report its Selective toxicity value.
- System: Plasmodium falciparum
- METHOD DESCRIPTION: In vitro test of inhibitory activity against proliferation of malarial parasites in human red blood cells
- Assay type: cell-based
- CONDITIONS: ratio of EC50 for the F28-7 cell line to EC50 for the malarial parasite (P. falciparum FCR-3 strain)
Structures can show the parent of a compound that is named as a salt.
Numbers only.

# map each compound to its Selective toxicity
1. C=C1OC(O)=C(C(=O)C(OC)C2C(/C=C(\CO)C3CCC(C)C(/C(C)=C/CC4OC(C)(C5CCC(C(O)CC)O5)CC4C)O3)CC(C)C(O)C2CO)C1=O (stereo not shown) [SF2487 substance Na salt]
2. OC(c1cc(C(F)(F)F)nc2c(C(F)(F)F)cccc12)C1CCCCN1 (stereo not shown) [Mefloquine, reference compound]
3. CCc1nc(N)nc(N)c1-c1ccc(Cl)cc1 [Pyrimethamine, reference compound]
4. C=C[C@H]1C[N@@]2CC[C@H]1C[C@H]2[C@H](O)c1ccnc2ccc(OC)cc12 [Quinine, reference compound]

// result
1: 800; 2: 91; 3: 120; 4: 910

---

- System: Plasmodium falciparum
- METHOD DESCRIPTION: In vitro test of inhibitory activity against proliferation of malarial parasites in human red blood cells
- Format: cell-based
- CONDITIONS: read-out: EC50 values, namely molar concentrations of test compound for the 50% inhibition of proliferation, P. falciparum FCR-3 strain, 72 hours incubation
PARAMETER: pEC50
Numbers only, as −log10 of the molar value.

Illustrative cases are given below, each with its answer.
C[C@@H]1CC[C@H]2[C@@H](C)C(=O)O[C@@H]3O[C@@]4(C)CC[C@@H]1[C@]32OO4 [Artemisinin, reference compound]    8.11
OC(c1cc(C(F)(F)F)nc2c(C(F)(F)F)cccc12)C1CCCCN1 (centres unmarked) [Mefloquine, reference compound]    7.49
CCN(CC)CCCC(C)Nc1ccnc2cc(Cl)ccc12 (centres unmarked) [Chloroquine, reference compound]    7.74
CCc1nc(N)nc(N)c1-c1ccc(Cl)cc1 [Pyrimethamine, reference compound]    9.00

Then there is this compound:
Per the record, C=C[C@H]1C[N@@]2CC[C@H]1C[C@H]2[C@H](O)c1ccnc2ccc(OC)cc12 [Quinine, reference compound] has pEC50 of 6.96

---

- System: subclone F28-7 cells of FM3A cell line originating from a mouse mammary tumor
- METHOD DESCRIPTION: Toxicity of test compound against subclone F28-7 cells of FM3A cell line (cell proliferation)
- Format: cell-based
- CONDITIONS: Mus musculus, FM3A, read-out: concentration necessary to inhibit the proliferation of cells of the F28-7 cell line by 50% (EC50)
Structures can show the parent of a compound that is named as a salt.
PARAMETER: EC50 (nM)
Answers are plain numbers, in nM.

Sample C=C1OC(O)=C(C(=O)C(OC)C2C(/C=C(\CO)C3CCC(C)C(/C(C)=C/CC4OC(C)(C5CCC(C(O)CC)O5)CC4C)O3)CC(C)C(O)C2CO)C1=O (stereo not shown) [SF2487 substance Na salt] ; EC50 observed: 1600

---

- METHOD DESCRIPTION: Acute toxicity, intraperitoneal injection
- Format: in vivo
- CONDITIONS: mouse, in vivo, ip; ICR mice, intraperitoneal administration, 14th day
Structures can show the parent of a compound that is named as a salt.
PARAMETER: LD50 at 14 days

get_value(item= C=C1OC(O)=C(C(=O)C(OC)C2C(/C=C(\CO)C3CCC(C)C(/C(C)=C/CC4OC(C)(C5CCC(C(O)CC)O5)CC4C)O3)CC(C)C(O)C2CO)C1=O (stereo not shown) [SF2487 substance Na salt] , readout=LD50 at 14 days) returns ≥ 25 mg/kg
